- SUBJECT_OF_TEST: Fibroblast growth factor receptor 3 (Homo sapiens) (UniProt P22607)
- Sequence (P22607 23-806 limits assumed): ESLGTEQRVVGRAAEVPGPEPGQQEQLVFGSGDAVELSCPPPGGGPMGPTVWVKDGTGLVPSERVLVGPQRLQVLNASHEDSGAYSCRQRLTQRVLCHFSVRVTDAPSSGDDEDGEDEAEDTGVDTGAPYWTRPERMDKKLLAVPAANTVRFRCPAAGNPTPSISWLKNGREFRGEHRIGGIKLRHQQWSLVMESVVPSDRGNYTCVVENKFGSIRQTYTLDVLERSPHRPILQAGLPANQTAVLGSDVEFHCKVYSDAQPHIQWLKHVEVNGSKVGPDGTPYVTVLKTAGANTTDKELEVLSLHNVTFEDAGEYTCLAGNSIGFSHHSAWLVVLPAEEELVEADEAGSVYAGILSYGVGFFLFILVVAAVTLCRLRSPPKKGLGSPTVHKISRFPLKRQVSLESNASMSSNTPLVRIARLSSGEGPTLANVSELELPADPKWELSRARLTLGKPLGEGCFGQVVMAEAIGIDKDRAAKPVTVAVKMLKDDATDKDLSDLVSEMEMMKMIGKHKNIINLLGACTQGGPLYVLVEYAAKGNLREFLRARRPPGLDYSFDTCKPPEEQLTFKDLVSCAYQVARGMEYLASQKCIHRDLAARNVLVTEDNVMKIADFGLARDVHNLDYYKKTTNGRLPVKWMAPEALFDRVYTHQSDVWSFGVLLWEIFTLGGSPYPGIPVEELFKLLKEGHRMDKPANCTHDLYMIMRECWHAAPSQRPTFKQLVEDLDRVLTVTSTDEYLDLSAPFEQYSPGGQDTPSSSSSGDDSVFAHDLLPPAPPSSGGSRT
- CONDITIONS_USED: Compound concentration 20.0 uM, Protein concentration 2.0 uM, Result type QC Liability
- Description: Thermal Shift Assay. Domain: start/stop: P449-E759
The entries below are paired with their reported ΔTm.

| COMPOUND | ΔTm, c |
| --- | --- |
| O=C(NCCCN1CCOC1=O)c1cnc(NCc2cc(Br)ccc2Br)nc1NC1CCCC1 | 0 |
| CS(=O)(=O)N1CCCC(NC(=O)[C@H](CCC2CCCCC2)NC(=O)c2ccc(CNC(=O)c3cnc4ccccn34)cc2)C1 (some centres undefined) | -0.0946 |
| CN(c1ncccc1CNc1ccnc(-c2nc3c(F)c(Cl)ccc3[nH]2)n1)S(C)(=O)=O | 0.31 |
| CN(C)C(=O)c1ccc(-c2cc(C(=O)N[C@@H]3CCc4ccccc43)no2)cc1O | -0.162 |

* * *

- SUBJECT_OF_TEST: Peripheral plasma membrane protein CASK (Homo sapiens, UniProt O14936)
- Sequence (O14936 whole entry): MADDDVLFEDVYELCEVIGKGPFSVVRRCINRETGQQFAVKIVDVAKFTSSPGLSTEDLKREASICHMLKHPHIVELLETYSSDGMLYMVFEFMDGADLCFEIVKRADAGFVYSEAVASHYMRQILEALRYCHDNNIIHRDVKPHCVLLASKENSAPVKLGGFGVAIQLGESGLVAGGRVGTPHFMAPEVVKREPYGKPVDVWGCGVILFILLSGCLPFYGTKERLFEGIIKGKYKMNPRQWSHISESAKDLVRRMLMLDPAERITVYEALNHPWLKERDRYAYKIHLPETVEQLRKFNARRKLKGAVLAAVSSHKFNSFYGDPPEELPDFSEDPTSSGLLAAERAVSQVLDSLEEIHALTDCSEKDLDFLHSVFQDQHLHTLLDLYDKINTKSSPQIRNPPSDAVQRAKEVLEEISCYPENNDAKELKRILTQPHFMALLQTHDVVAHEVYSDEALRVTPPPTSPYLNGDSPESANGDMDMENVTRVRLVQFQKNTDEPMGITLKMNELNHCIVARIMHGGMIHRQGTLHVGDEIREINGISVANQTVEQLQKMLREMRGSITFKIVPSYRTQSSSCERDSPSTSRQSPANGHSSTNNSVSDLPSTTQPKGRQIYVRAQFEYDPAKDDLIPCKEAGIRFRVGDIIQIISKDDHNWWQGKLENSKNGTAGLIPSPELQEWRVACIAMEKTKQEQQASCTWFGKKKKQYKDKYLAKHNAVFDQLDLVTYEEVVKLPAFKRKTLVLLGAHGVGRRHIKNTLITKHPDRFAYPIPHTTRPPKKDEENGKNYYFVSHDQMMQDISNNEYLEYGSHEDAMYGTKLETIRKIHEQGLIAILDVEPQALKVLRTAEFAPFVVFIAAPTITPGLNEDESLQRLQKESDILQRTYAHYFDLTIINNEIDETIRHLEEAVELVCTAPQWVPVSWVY
- MEASUREMENT_DESCRIPTION: Cellular target engagement assay with: CASK
pIC50: −log10 of the molar value.
REPORTED_METRIC: pIC50

| STRUCTURE_STRING | SUBJECT_OF_TEST | MEAS_VALUE |
| --- | --- | --- |
| O=C(NCCCN1CCOC1=O)c1cnc(NCc2cc(Br)ccc2Br)nc1NC1CCCC1 | Peripheral plasma membrane protein CASK (Homo sapiens, UniProt O14936) | 7.10 |
